Tested on: NCI/ADR-RES ovarian
Experiment: NCI-60 one-dose screen, 48 h
Settings: 10 µM unless noted
Compounds without any hit were thinned out: in the full panel of roughly 83,000, 20% have a hit. Calls of active or inactive are those of the source. How the source made its calls: active means growth percent below 10; inactive means the rest.
In this exercise, the only acceptable responses are active, inactive

Please review the entries below; each comes with its answer.
{"molecule": "O=C1Nc2cc(-c3ccc(NS(=O)(=O)c4ccc(F)c(Cl)c4)cc3)ccc2/C1=C/c1ccc[nH]1", "subject of test": "NCI/ADR-RES ovarian", "category": "inactive"}
{"molecule": "Nc1nnc(-c2cncc(Br)c2)c(-c2c[nH]c3ccc(Br)cc23)n1", "subject of test": "NCI/ADR-RES ovarian", "category": "inactive"}
{"molecule": "C#CCN(C)CCCOc1ccc(N(CC)C(=O)c2cc(C(C)C)c(O)cc2O)cc1Cl", "subject of test": "NCI/ADR-RES ovarian", "category": "active"}
{"molecule": "O=C(CSc1nnc(-c2ccc(-c3nc4ccccc4[nH]3)cc2)o1)Nc1ccc(Br)cc1", "subject of test": "NCI/ADR-RES ovarian", "category": "inactive"}
{"molecule": "O=C(CSc1nc2sc3c(c2c(=O)n1-c1ccc(Cl)cc1)CCCC3)NNC(=O)c1ccc(Br)cc1", "subject of test": "NCI/ADR-RES ovarian", "category": "inactive"}
{"molecule": "O=C(CSc1nnc(-c2ccc(-c3nc4ccc(Cl)cc4[nH]3)cc2)o1)Nc1ccccc1", "subject of test": "NCI/ADR-RES ovarian", "category": "inactive"}
{"molecule": "C=CC[n+]1cccc2c3ccccc3ccc21", "subject of test": "NCI/ADR-RES ovarian", "category": "inactive"}
{"molecule": "Clc1ccc(-c2nc3c4c(-c5ccccc5)c(-c5ccccc5)n(Cc5ccccc5)c4ncn3n2)cc1", "subject of test": "NCI/ADR-RES ovarian", "category": "inactive"}

Here is another molecule to look at.
Req: Query: recorded result category for COc1cc(C2CC(c3ccc(S(=O)(=O)NCCNc4nc(N(C)C)nc(N5CCOCC5)n4)cc3)=Nc3c(N)nc(N)nc3N2)cc(OC)c1OC (centres undefined) in this test
Resp: inactive

----------
Test system: MDA-MB-435 melanoma
Assay: NCI-60 one-dose screen, 48 h (100 = growth as untreated, 0 = no growth, -100 = all killed)
Settings: 10 µM
This is part of a sample that, as a whole, favours compounds with a hit. Of some 83,000 tested, about 20% had one in any assay.
quantity kind: growth (%)
Give bare numbers, in %.

Use the examples below as a reference point.
{"smiles": "CC/C(=C(/c1ccc(O)cc1)c1ccc(OCCN(C)C(=O)COCCOCCNC(=O)c2ccc3c(c2)CN([C@@H]2CCC(=O)NC2=O)C3=O)cc1)c1ccccc1", "subject of test": "MDA-MB-435 melanoma", "measure unit": "%", "growth": 97}
{"smiles": "CC/C(=C(/c1ccc(O)cc1)c1ccc(OCCN(C)C(=O)CCOCCNC(=O)Cc2ccc3c(c2)CN([C@@H]2CCC(=O)NC2=O)C3=O)cc1)c1ccccc1", "subject of test": "MDA-MB-435 melanoma", "measure unit": "%", "growth": 85}

Then this compound:
Req: Write down growth measured for item CC/C(=C(\c1ccc(O)cc1)c1ccc(OCCN(C)C(=O)CCOCCNC(=O)c2ccc3c(c2)CN([C@@H]2CCC(=O)NC2=O)C3=O)cc1)c1ccccc1
Resp: 95.4

----------
Tested on: T-47D breast
Assay: NCI-60 one-dose screen, 48 h (100 = growth as untreated, 0 = no growth, -100 = all killed)
Details: 10 µM
About 83,000 compounds went through this panel and 20% of them were active in at least one assay; those are over-represented in the sample as a whole. Active and inactive are the calls of the source. How the source made its calls: active means growth percent below 10; inactive means the rest.
Consider the following compounds; for each one, report its growth.

In the examples that follow, each entry is paired with its recorded growth.
{"smiles": "CC/C(=C(/c1ccc(O)cc1)c1ccc(OCCN(C)C(=O)COCCOCCNC(=O)c2ccc3c(c2)CN([C@@H]2CCC(=O)NC2=O)C3=O)cc1)c1ccccc1", "growth": "33.4% (inactive)"}
{"smiles": "CC/C(=C(/c1ccc(O)cc1)c1ccc(OCCN(C)C(=O)CCOCCNC(=O)Cc2ccc3c(c2)CN([C@@H]2CCC(=O)NC2=O)C3=O)cc1)c1ccccc1", "growth": "25% (inactive)"}
{"smiles": "CC/C(=C(\\c1ccc(O)cc1)c1ccc(OCCN(C)C(=O)COCCNC(=O)Cc2ccc3c(c2)CN([C@@H]2CCC(=O)NC2=O)C3=O)cc1)c1ccccc1", "growth": "7.16% (active)"}

Now take the following compound into account.
Req: Look up and state reported growth for CC/C(=C(/c1ccc(O)cc1)c1ccc(OCCN(C)C(=O)COCCOCCNC(=O)Cc2ccc3c(c2)CN([C@@H]2CCC(=O)NC2=O)C3=O)cc1)c1ccccc1
Resp: 6.14% (active)

----------
Tested on: RPMI-8226 leukemia
Test: NCI-60 one-dose screen, 48 h
Details: 10 µM unless noted
The panel holds about 83,000 compounds, 20% with a hit somewhere; the sample as a whole holds those more often. Calls of active or inactive are those of the source. The calls were made as follows: active = growth percent below 10; inactive = the rest.
Form entry, call: pick from label 1 = active, label 0 = inactive

Observe how each entry below is paired with its result.
{"compound": "Nc1nn2c(-c3cc4cc(Br)ccc4oc3=O)ccnc2c1N=Nc1ccccc1", "category": "label 0"}
{"compound": "Cc1ccc(-c2cc(C(=O)N=Nc3c(O)[nH]c4ccc(F)cc34)c3ccccc3n2)cc1", "category": "label 0"}
{"compound": "COc1ccc(C(=O)C[n+]2cccc3c4ccccc4ccc32)cc1", "category": "label 0"}
{"compound": "O=Cc1cncc(-c2ccc3ncnc(N4CCc5cc(F)c(Cl)cc54)c3c2)c1", "category": "label 0"}

Req: // return assay outcome for O=C1Nc2ccccc2/C1=C/C(=O)c1cc2ccccc2oc1=O
Resp: label 0

Req: Name the outcome recorded for COC(=O)c1c(C(=O)OC)c2c3ccccc3c3ccccc3n2c1C(=O)C(F)(F)F in the assay.
Resp: label 0

Req: Record lookup: outcome of this test for COc1ccc(NC(=O)Nc2nc3ccc([N+](=O)[O-])cc3s2)cc1 ?
Resp: label 1

Req: How was CC(C)(C)C(=O)c1c2c(c3ccc4c5ccccc5ccc4n13)C(=O)c1ccccc1C2=O classified in this test?
Resp: label 0

Req: Recorded call for Cc1cn(-c2cc(NC(=O)c3ccc(C)c(-n4cc(-c5cnc6cccnn56)nn4)c3)cc(C(F)(F)F)c2)cn1 ?
Resp: label 0

Req: Each compound tested received a call. Report the one for O=C1c2cccc3c(N4CCN(Cc5ccccc5)CC4)ccc(c23)C(=O)N1c1cccc(-c2nn(-c3ccccc3)cc2-c2nc3ccccc3s2)c1 .
Resp: label 0

Req: Each compound tested received a call. Report the one for COc1ccc(N=Nc2c(N)nn3c(-c4cc5cc(Br)ccc5oc4=O)ccnc23)cc1 .
Resp: label 0

Req: Any idea what this test logged for Cn1cc(Nc2ncnc(-c3ccc(N4CCCC4)c(C#N)c3)n2)cn1 ?
Resp: label 0

Req: Which outcome was entered for the compound CCOc1ccccc1[C@H]1C(C(=O)c2ccc(Cl)cc2)C2(N[C@@H]1c1ccccc1)C(=O)Nc1ccc(Cl)cc12 (some centres not stated) in this test?
Resp: label 0

Req: For N#CC1=C(c2cccs2)Nc2c(c(-c3ccccc3)nn2-c2ccccc2)C12C(=O)Nc1ccc(Cl)cc12 (configuration not stated) , what call appears in the results of this test?
Resp: label 0

Req: How was Cc1ccc(Cl)cc1NC(=O)Nc1nc2ccc([N+](=O)[O-])cc2s1 classified in this test?
Resp: label 1

Req: # lookup: test call for COc1cc(CNC(=O)[C@]23CCC(C)(C)CC2C2=CCC4[C@@]5(C)CCC(OC(C)=O)C(C)(C)C5CC[C@@]4(C)[C@]2(C)CC3)ccc1OCc1cn(-c2ccc(Cl)cc2Cl)nn1 (some centres not stated)
Resp: label 0

Req: // param item: COc1ccc(-c2nc3ccccc3n2CC(=O)N=Nc2c(O)[nH]c3ccc(OC)cc23)cc1 ; yields the recorded call
Resp: label 0

Req: How did this test come out for Nc1nnc(CS(=O)(=O)c2ccccc2)s1 ?
Resp: label 0

----------
Kindly supply the reported growth values for the records listed here.
Test system: HOP-62 NSCLC
Assay: NCI-60 one-dose screen, 48 h (100 = growth as untreated, 0 = no growth, -100 = all killed)
Details: 1 µM
The panel holds about 83,000 compounds, 20% with a hit somewhere; the sample as a whole holds those more often.
Answers are plain numbers, in %.

// known answers, use as guide
{"smiles": "CC/C(=C(\\c1ccc(O)cc1)c1ccc(OCCN(C)C(=O)CCOCCNC(=O)c2ccc3c(c2)CN([C@@H]2CCC(=O)NC2=O)C3=O)cc1)c1ccccc1", "subject of test": "HOP-62 NSCLC", "measure unit": "%", "endpoint value": 95.1}
{"smiles": "CC/C(=C(/c1ccc(O)cc1)c1ccc(OCCN(C)C(=O)COCCOCCNC(=O)Cc2ccc3c(c2)CN([C@@H]2CCC(=O)NC2=O)C3=O)cc1)c1ccccc1", "subject of test": "HOP-62 NSCLC", "measure unit": "%", "endpoint value": 91.6}
{"smiles": "CC/C(=C(/c1ccc(O)cc1)c1ccc(OCCN(C)C(=O)COCCOCCNC(=O)c2ccc3c(c2)CN([C@@H]2CCC(=O)NC2=O)C3=O)cc1)c1ccccc1", "subject of test": "HOP-62 NSCLC", "measure unit": "%", "endpoint value": 93.4}
{"smiles": "CC/C(=C(/c1ccc(O)cc1)c1ccc(OCCN(C)C(=O)CCOCCNC(=O)Cc2ccc3c(c2)CN([C@@H]2CCC(=O)NC2=O)C3=O)cc1)c1ccccc1", "subject of test": "HOP-62 NSCLC", "measure unit": "%", "endpoint value": 82.5}

Kindly review the next compound as well.
Req: Please give the documented growth of CC/C(=C(\c1ccc(O)cc1)c1ccc(OCCNC)cc1)c1ccccc1
Resp: 97.8

The values you see were collected from PubChem BioAssay (NCI).
